Cited source for all entries: the supplement of paper PMC11417369

Tested on: PfAP2-LT AP2 domain (GST-tagged)
method-summary: gcPBM binding intensity (ln(normalized median fluorescence intensity)); higher = stronger DNA binding
Over roughly 25,000 sequences, “ln(normalized median fluorescence intensity)” has its median near 8.9; the highest 2% begin near 10. The full list was thinned out, with the highest values kept by preference.
Please go through the items and note down their gcPBM binding intensity (ln).
Number, no unit, nothing else.

gcPBM binding intensity (ln) recorded for this sequence, ATAATCCACAAGCACACACACACACCCATATATATA [CACACA_site1268] , is 10.1

Reported gcPBM binding intensity (ln) of TGATAATAAGCATACACACACACACTAGAAAAAAAA [CACACA_site4558] : 10.1

Lookup result for AAAGAAGGGAAACACACACACACACCCACAAAAAAA [CACACA_site3766] ; measured gcPBM binding intensity (ln): 10.2

Value of measured gcPBM binding intensity (ln) for the entry AGATATAAGAAAAGCACACACACACTAGAAAAAAAA [CACACA_site5559] : 9.92

gcPBM binding intensity (ln) for CAAAAGAAGGTAAACACACACACACCCATACAAAAA [CACACA_site3765] is 10.1

Item: TGATAATAAGCATACACACACACACTAAAAAAAAAA [CACACA_site6478] | gcPBM binding intensity (ln): 9.94

Item: TAATAATACCCAAGCACACACACACCCATATATATA [CACACA_site4831] | gcPBM binding intensity (ln): 10.1

Looking up TTAATAACAAAATAAACACACATATATAAATCCACA [CACACA_site1590] , I found its gcPBM binding intensity (ln) recorded as 9.09

Reported gcPBM binding intensity (ln) of ATAATACCCAAGCACACACACACACCGATATATATA [CACACA_site8344] : 10.4
